- target-desc: endothelin receptor of bovine cerebellar tissue (membrane fraction) (bovine)
- Sequence (P28088 27-441): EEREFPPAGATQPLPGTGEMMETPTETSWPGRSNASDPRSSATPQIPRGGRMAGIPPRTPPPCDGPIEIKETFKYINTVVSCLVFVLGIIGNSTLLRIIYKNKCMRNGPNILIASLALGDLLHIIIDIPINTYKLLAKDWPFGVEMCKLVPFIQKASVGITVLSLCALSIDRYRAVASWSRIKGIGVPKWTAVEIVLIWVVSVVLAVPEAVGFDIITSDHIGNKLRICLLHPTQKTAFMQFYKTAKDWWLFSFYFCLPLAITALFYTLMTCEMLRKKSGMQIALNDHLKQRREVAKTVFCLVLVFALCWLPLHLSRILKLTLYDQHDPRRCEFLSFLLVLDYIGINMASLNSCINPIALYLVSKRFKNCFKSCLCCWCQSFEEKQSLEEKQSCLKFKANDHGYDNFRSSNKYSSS
- measurement-protocol: 125I-endothelin-1 displacement, bovine cerebellar membrane fraction
Bridge positions count the residues as written; N and C are the ends. Square brackets hold non-standard residues; d marks the D form. Ends that are not written are not given here. 2Nal = N[C@@H](Cc1ccc2ccccc2c1)C(=O)O
property-measured: IC50 (nM)
Give a bare numeral; the unit nM is implied.

Solved entries (count: 4):
>  <binder>
GNWHGTAPDWFFNYY[2Nal]-OH (lactam N-9) [Compound (I-49)]

>  <IC50 / nM>
6.3

$$$$
>  <binder>
GNWHGTAPDWFFNYY (lactam N-9) [Compound (I-17)]

>  <IC50 / nM>
54

$$$$
>  <binder>
GNWHGTAPDWFFNYYWWFFNYYW (lactam N-9) [Compound (I-19)]

>  <IC50 / nM>
370

$$$$
>  <binder>
GNWHGTAPDWFFNYY (lactam Gly 1 N-terminus to Asp 9 side chain; C-terminal carboxyl of Tyr 15 amidated with Trn, 2-(3-indolyl)ethylamine) [Compound (I-45)]

>  <IC50 / nM>
50

$$$$

Exercise: Consider the binder shown here: GNWHGTAPDWFFNYYWVYFAHLDIIW (lactam N-9) [Compound (I-20)] What is its recorded IC50?
Key: 300

Exercise: Let us now turn to GNWHGTAPDWFFNYYWW (lactam N-9) [Compound (I-18)]
Key: 36
